Catalogue of compounds with associated mass density
details: 293.15 K; 101 kPa; Liquid
Dear colleague, please return just the value in kg/m3, with no unit written.

> print(dat)
                             compound    value.type  test.result
1  Cc1cccc(C)c1 [1,3-dimethylbenzene]  mass density       864.18
2           CCc1ccccc1 [ethylbenzene]  mass density       867.14

mass density reading for CCCCCCCCCO [nonan-1-ol] : 827.7

mass density reading for CCCCCCCCCCO [decan-1-ol] : 829.98

mass density reading for Cc1ccc(C)cc1 [1,4-dimethylbenzene] : 860.96

mass density reading for Cc1ccccc1C [1,2-dimethylbenzene] : 879.49

---

conditions: 313.15 K; 101 kPa; Liquid
Value Type: mass density (kg/m3)
Dear colleague, please return just the value in kg/m3, with no unit written.

Field: example entries. Status: answers known.
> print(dat)
       compound    value.type  test.result
1   CCCCCCCCCCO  mass density       816.27
2    CCCCCCCCCO  mass density       813.88
3  Cc1ccc(C)cc1  mass density       843.51
4    Cc1ccccc1C  mass density       862.59
5    CCc1ccccc1  mass density       849.55

Alright, here's another molecule for you.
mass density reading for `Cc1cccc(C)c1` : 846.9

---

Catalogue of molecules with associated speed of sound
settings: 293.15 K; 101 kPa; Liquid; Pulse-echo method
± gives the expanded uncertainty stated by the source.
Give the value; after it, write the unit.

Field: example entries. Status: answers known.
> print(dat)
       compound      value.type   test.result
1    CCc1ccccc1  speed of sound  1340 ± 2 m/s
2   CCCCCCCCCCO  speed of sound  1396 ± 2 m/s
3    CCCCCCCCCO  speed of sound  1381 ± 2 m/s
4  Cc1ccc(C)cc1  speed of sound  1330 ± 2 m/s

speed of sound reading for `Cc1ccccc1C` : 1369 ± 2 m/s

---

conditions: 313.15 K; 101 kPa; Liquid; Pulse-echo method
Numbers after ± are expanded uncertainties.
Catalogue of compounds with associated speed of sound

Field: example entries. Status: answers known.
> print(dat)
       compound   test.result
1  Cc1ccc(C)cc1  1249 ± 2 m/s
2    CCc1ccccc1  1257 ± 2 m/s

Alright, here's another compound for you.
speed of sound reading for `Cc1cccc(C)c1` : 1259 ± 2 m/s

---

conditions: 303.15 K; 101 kPa; Liquid; Pulse-echo method
Value Type: speed of sound (m/s)
Dear colleague, please return just the value in m/s, with no unit written.

> print(dat)
       compound      value.type  unit.label  test.result
1    CCc1ccccc1  speed of sound         m/s         1298
2   CCCCCCCCCCO  speed of sound         m/s         1362
3  Cc1cccc(C)c1  speed of sound         m/s         1300
4  Cc1ccc(C)cc1  speed of sound         m/s         1289
5    CCCCCCCCCO  speed of sound         m/s         1347

speed of sound reading for `Cc1ccccc1C` : 1328

---

conditions: 303.15 K; 101 kPa; Liquid
Value Type: mass density (kg/m3)
Dear colleague, please return just the value in kg/m3, with no unit written.

Field: example entries. Status: answers known.
> print(dat)
       compound    value.type  unit.label  test.result
1    CCCCCCCCCO  mass density       kg/m3       820.82
2  Cc1cccc(C)c1  mass density       kg/m3       855.56
3  Cc1ccc(C)cc1  mass density       kg/m3       852.25

mass density reading for `CCCCCCCCCCO` : 823.1

mass density reading for `CCc1ccccc1` : 858.37

mass density reading for `Cc1ccccc1C` : 871.14
